Value source: patent US10919859B2

method: Aqueous solubility (buffer vs acetonitrile/water, LC-UV)
Assay type: physicochemical
assay-setup: aqueous buffer, kinetic from dmso stock; pH 2.2 buffer, 24 h shaking, 2.5% DMSO; examples in this invention
metric: solubility at 24 h (µg/mL)
One number for each entry, in µg/mL.

Known solubility at 24 h results, listed for orientation:
In [3]: df
Out[3]:
                         chemical_structure  test_value
0  O=C(O)[C@H]1C[C@@H]1c1ccc(NCc2cc(-c3ccc(O)c(Cl)c3)c(F)cc2F)cn1          58
1  COc1ccc(-c2ccc(-c3cc(CNc4ccc([C@H]5C[C@@H]5C(=O)O)nc4)c(F)cc3F)cc2)nn1          56
2  CC(C)(O)CCOc1ccc(-c2cc(CNc3ccc([C@H]4C[C@@H]4C(=O)O)nc3)ccc2C(F)(F)F)cc1          72

Answer for every listed entry: what is its solubility at 24 h? The entries follow.
1. COc1c(F)cc(-c2cc(CNc3ccc([C@H]4C[C@@H]4C(=O)O)nc3)c(F)cc2F)cc1F
2. O=C(O)[C@H]1C[C@@H]1c1ccc(NCc2ccc(C(F)(F)F)c(-c3ccc(OCC4CC4)cc3)c2)cn1

1: 61; 2: 22

----------
target-under-test: human GPR40 receptor (Homo sapiens (Human))
Sequence (O14842 whole entry): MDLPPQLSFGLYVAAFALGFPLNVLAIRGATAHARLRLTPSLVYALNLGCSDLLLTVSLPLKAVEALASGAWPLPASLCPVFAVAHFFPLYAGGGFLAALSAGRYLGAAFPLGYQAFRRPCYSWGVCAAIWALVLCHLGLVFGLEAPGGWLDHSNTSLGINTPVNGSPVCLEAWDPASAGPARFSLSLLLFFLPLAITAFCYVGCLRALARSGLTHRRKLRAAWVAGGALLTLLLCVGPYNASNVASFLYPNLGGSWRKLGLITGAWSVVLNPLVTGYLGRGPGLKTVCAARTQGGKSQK
method: IP1 accumulation measurements using the IPOne assay system
assay-setup: 1321N1 cells stably expressing human GPR40, 1 h at 37° C.
// classify: if (EC50 < 50 nM) condition met else condition not met

A selection of reference data follows.
In [3]: df
Out[3]:
                                   molecule                         target_under_test                cat
0  Cc1cc(OCC2(O)CCOCC2)cc(C)c1-c1ccc(F)c(CNc2ccc([C@H]3C[C@@H]3C(=O)O)nc2)c1  human GPR40 receptor (Homo sapiens (Human))  condition not met
1  Cc1cc(C(N)=O)cc(C)c1-c1ccc(F)c(CNc2ccc([C@H]3C[C@@H]3C(=O)O)nc2)c1  human GPR40 receptor (Homo sapiens (Human))  condition not met
2  O=C(O)[C@H]1C[C@@H]1c1ccc(NCc2ccc(C(F)(F)F)c(-c3ccc(OCC4CC4)cc3)c2)cn1  human GPR40 receptor (Homo sapiens (Human))      condition met
3  Cc1ccc(Cl)c(-c2ccc(F)c(CNc3ccc([C@H]4C[C@@H]4C(=O)O)nc3)c2)c1Cl  human GPR40 receptor (Homo sapiens (Human))      condition met
4  O=C(O)[C@H]1C[C@@H]1c1ccc(NCc2ccc(C(F)(F)F)c(-c3ccc(OC(F)(F)F)cc3)c2)cn1  human GPR40 receptor (Homo sapiens (Human))      condition met
5  Cc1cc(OCC(C)(C)C#N)cc(C)c1-c1ccc(F)c(CNc2ccc([C@H]3C[C@@H]3C(=O)O)nc2)c1  human GPR40 receptor (Homo sapiens (Human))  condition not met
6  CC(C)(O)CCOc1ccc(-c2cc(CNc3ccc([C@H]4C[C@@H]4C(=O)O)nc3)ccc2C(F)(F)F)cc1  human GPR40 receptor (Homo sapiens (Human))      condition met
7  Cc1cc(OCCC(C)(C)O)cc(C)c1-c1ccc(F)c(CNc2ccc([C@H]3C[C@@H]3C(=O)O)nc2)c1  human GPR40 receptor (Homo sapiens (Human))      condition met
8  Cc1cc(CO)cc(C)c1-c1ccc(F)c(CNc2ccc([C@H]3C[C@@H]3C(=O)O)nc2)c1  human GPR40 receptor (Homo sapiens (Human))  condition not met
9  CCc1cccc(CC)c1-c1ccc(F)c(CNc2ccc([C@H]3C[C@@H]3C(=O)O)nc2)c1  human GPR40 receptor (Homo sapiens (Human))  condition not met

API: query returns whether the molecule falls strictly under 50 nM in EC50. Query: Cc1cc(OCC2CCOC2)cc(C)c1-c1ccc(F)c(CNc2ccc([C@H]3C[C@@H]3C(=O)O)nc2)c1 (stereo partly drawn)
condition met

Also check N#Cc1cccc(C#N)c1-c1ccc(F)c(CNc2ccc([C@H]3C[C@@H]3C(=O)O)nc2)c1
condition not met

Also check Cc1cc(-c2nnn(C)n2)cc(C)c1-c1ccc(F)c(CNc2ccc([C@H]3C[C@@H]3C(=O)O)nc2)c1
condition met

Also check O=C(O)[C@H]1C[C@@H]1c1ccc(NCc2cc(-c3ccc(O)c(Cl)c3)c(F)cc2F)cn1
condition not met
